molecular target: Retinaldehyde dehydrogenase 3 (Homo sapiens) (UniProt P47895); experiment: qHTS for Inhibitors of the Aldehyde Dehydrogenase Family (ALDH1A3) Primary screen (AID 2061315); details: ALDH inhibition qHTS; series mostly up to 56 µM;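 note: plate controls were DMSO vehicle for no effect and reference inhibitor for full effect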
Records with an inconclusive call do not appear. Active and inactive are the calls of the source. Calls come from the whole dose curve; as a rule, active = well fitted inhibition curve with a large enough effect; inconclusive = small, poorly fitted or top-dose-only effect; inactive = no such curve, though single readings can be large or run the other way.
assay.metric: activity change, negative = inhibition

Lab note: C=C1CO[C@@]2(O[C@H]3CC4C5CC=C6C[C@@H](O)C[C@@H](O[C@@H]7OC[C@H](O)[C@H](O[C@@H]8OC[C@@H](O)[C@H](O)[C@H]8O)[C@H]7O[C@@H]7O[C@@H](C)[C@H](OC(C)=O)[C@@H](OC(C)=O)[C@H]7OC(C)=O)[C@]6(C)C5CC[C@]4(C)[C@@H]3[C@@H]2C)[C@@H](O)[C@H]1OC1OC(C)C(O)C(O)C1O (some centres not stated) gave activity change, negative = inhibition of -6.16% [at 11.2 µM] (inactive)
